- measurement-target: T1, full-length human SIRPαV2 E→N on Expi-CHO cells (human, UniProt P78324 31-504)
- T1 construct: the entry already carries the change (TKRE to TKRN)
- T1 sequence (P78324 other isoform, or with tags, fused parts or gaps): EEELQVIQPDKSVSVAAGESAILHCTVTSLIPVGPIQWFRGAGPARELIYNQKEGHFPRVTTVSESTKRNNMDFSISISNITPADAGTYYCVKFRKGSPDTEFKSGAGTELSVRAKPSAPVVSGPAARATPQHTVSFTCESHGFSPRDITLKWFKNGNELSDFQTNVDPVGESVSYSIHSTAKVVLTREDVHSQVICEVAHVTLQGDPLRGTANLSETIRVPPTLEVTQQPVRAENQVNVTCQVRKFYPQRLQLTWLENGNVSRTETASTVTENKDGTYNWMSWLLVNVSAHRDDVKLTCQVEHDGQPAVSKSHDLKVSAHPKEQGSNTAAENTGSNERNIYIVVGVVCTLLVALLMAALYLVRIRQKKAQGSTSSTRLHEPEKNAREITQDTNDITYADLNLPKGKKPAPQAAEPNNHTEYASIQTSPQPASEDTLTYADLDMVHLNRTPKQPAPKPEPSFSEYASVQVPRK
- assay-method-text: flow cytometry, Expi-CHO cells
Reported pEC50 values follow for various binders
Answer as the number alone; pEC50 is minus log10 of concentration in mol/L.

Example binders with recorded pEC50:
Antibody E22 (antibody, human IgG1, kappa, L234A L235A, V domains shown) VH: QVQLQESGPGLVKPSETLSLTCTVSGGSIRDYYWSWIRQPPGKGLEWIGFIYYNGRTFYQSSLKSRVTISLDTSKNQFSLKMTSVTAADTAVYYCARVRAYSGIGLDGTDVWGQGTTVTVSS VL: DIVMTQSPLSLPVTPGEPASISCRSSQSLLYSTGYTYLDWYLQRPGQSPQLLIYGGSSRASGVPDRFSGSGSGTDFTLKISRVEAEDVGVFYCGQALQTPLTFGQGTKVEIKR :: 9.40
Antibody D (antibody, human IgG1, kappa, L234A L235A, V domains shown) VH: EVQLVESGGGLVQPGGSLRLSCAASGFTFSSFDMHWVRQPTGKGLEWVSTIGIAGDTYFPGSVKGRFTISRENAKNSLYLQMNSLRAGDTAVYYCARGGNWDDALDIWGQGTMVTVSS VL: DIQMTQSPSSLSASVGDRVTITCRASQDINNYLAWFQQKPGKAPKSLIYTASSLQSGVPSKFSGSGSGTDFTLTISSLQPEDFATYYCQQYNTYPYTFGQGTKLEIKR :: 9.70
Anti-SIRPα antibody KWAR23 (antibody, V domains shown) VH: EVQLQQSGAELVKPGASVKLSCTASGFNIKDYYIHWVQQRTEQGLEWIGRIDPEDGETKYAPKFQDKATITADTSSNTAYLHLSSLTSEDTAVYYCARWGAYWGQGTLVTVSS VL: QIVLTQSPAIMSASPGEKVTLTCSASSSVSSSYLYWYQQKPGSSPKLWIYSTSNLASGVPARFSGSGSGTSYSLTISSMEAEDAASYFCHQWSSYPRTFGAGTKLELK :: 9.70

Which pEC50 is reported for this binder? Antibody B (antibody, human IgG1, kappa, L234A L235A, V domains shown) VH: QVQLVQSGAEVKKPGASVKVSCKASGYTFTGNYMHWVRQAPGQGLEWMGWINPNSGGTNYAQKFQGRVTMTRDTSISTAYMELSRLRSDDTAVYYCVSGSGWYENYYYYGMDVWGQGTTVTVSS VL: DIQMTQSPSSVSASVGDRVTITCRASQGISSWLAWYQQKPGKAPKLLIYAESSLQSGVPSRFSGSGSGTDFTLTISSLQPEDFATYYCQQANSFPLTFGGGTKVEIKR
8.39
